Data credit: ChEMBL document CHEMBL3585250

target: Carbonic anhydrase 12 (Homo sapiens, UniProt O43570)
Sequence (O43570 whole entry): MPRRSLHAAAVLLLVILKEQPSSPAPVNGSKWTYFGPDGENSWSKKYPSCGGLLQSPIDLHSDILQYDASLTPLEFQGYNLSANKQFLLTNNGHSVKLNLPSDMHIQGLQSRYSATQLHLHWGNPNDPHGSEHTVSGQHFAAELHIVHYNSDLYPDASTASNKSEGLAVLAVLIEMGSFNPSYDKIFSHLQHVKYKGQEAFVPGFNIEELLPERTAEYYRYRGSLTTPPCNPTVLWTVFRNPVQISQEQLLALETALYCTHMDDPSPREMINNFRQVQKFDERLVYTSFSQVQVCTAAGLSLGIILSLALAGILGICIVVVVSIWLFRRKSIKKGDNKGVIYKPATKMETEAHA
Known pKi of a selection of molecules
Conceptually, pKi converts a concentration in mol/L into minus its log10.

{"columns": ["compound_structure_string", "test_target", "pKi"],
 "data": [
  ["CCOc1ccc(S(=O)(=O)N[C@H](C)CC)cc1-c1nnc2c(n1)c(C)nn2-c1ccc(C)cc1", "Carbonic anhydrase 12 (Homo sapiens, UniProt O43570)", 7.15],
  ["CCOc1ccc(S(=O)(=O)N2CCN(C)CC2)cc1-c1nnc2c(n1)c(C)nn2-c1ccc(S(=O)(=O)N2CCN(C)CC2)c(Cl)c1", "Carbonic anhydrase 12 (Homo sapiens, UniProt O43570)", 7.10],
  ["CCOc1ccc(S(=O)(=O)N2CCN(C)CC2)cc1-c1nnc2c(n1)c(C)nn2-c1ccc(S(=O)(=O)N2CCN(C)CC2)cc1", "Carbonic anhydrase 12 (Homo sapiens, UniProt O43570)", 6.27]
]}

Let us move to another entry and its pKi.
Kindly note: Carbonic anhydrase 12 (Homo sapiens, UniProt O43570), "CCOc1ccc(S(=O)(=O)N2CCN(C)CC2)cc1-c1nnc2c(n1)c(C)nn2-c1ccc(C)cc1" , pKi value reported: 7.11

* * *

As a worked illustration, we turn to pKi data collected for Carbonic anhydrase 9 (Homo sapiens, UniProt Q16790).
Conceptually, pKi converts a concentration in mol/L into minus its log10.

Kindly note: Carbonic anhydrase 9 (Homo sapiens, UniProt Q16790), "CCOc1ccc(S(=O)(=O)NC[C@@H](C)O)cc1-c1nnc2c(n1)c(C)nn2-c1ccc(C)cc1" , pKi value reported: 7.45

Kindly note: Carbonic anhydrase 9 (Homo sapiens, UniProt Q16790), "CCOc1ccc(S(=O)(=O)N[C@@H](C)CC)cc1-c1nnc2c(n1)c(C)nn2-c1ccc(C)cc1" , pKi value reported: 7.56

Kindly note: Carbonic anhydrase 9 (Homo sapiens, UniProt Q16790), "CCOc1ccc(S(=O)(=O)N2CCN(C)CC2)cc1-c1nnc2c(n1)c(C)nn2-c1ccc(C)cc1" , pKi value reported: 7.60

* * *

As a worked illustration, we turn to Ki data collected for Carbonic anhydrase 12 (Homo sapiens, UniProt O43570).
Give just the numeric value; nM need not be written.

{"columns": ["compound_structure_string", "observable", "experimental_result"],
 "data": [
  ["CCOc1ccc(S(N)(=O)=O)cc1-c1nnc2c(n1)c(C)nn2-c1ccc(C)cc1", "Ki", 77.5]
]}

get_value(item= "CCOc1ccc(S(=O)(=O)N2CCN(C)CC2)cc1-c1nnc2c(n1)c(C)nn2-c1ccc(Cl)cc1" , readout=Ki) returns 81.5

get_value(item= "CCOc1ccc(S(=O)(=O)NC[C@@H](C)O)cc1-c1nnc2c(n1)c(C)nn2-c1ccc(C)cc1" , readout=Ki) returns 77.8

* * *

As a worked illustration, we turn to Ki data collected for Carbonic anhydrase 1 (Homo sapiens, UniProt P00915).

Kindly note: Carbonic anhydrase 1 (Homo sapiens, UniProt P00915), "CCOc1ccc(S(=O)(=O)N2CCNCC2)cc1-c1nnc2c(n1)c(C)nn2-c1ccc(Cl)cc1" , Ki value reported: 4220 nM

Kindly note: Carbonic anhydrase 1 (Homo sapiens, UniProt P00915), "CCOc1ccc(S(=O)(=O)NCCO)cc1-c1nnc2c(n1)c(C)nn2-c1ccc(C)cc1" , Ki value reported: 605 nM

Kindly note: Carbonic anhydrase 1 (Homo sapiens, UniProt P00915), "CCOc1ccc(S(=O)(=O)N[C@H](C)CC)cc1-c1nnc2c(n1)c(C)nn2-c1ccc(C)cc1" , Ki value reported: 3720 nM

Kindly note: Carbonic anhydrase 1 (Homo sapiens, UniProt P00915), "CCOc1ccc(S(=O)(=O)NC[C@@H](C)O)cc1-c1nnc2c(n1)c(C)nn2-c1ccc(C)cc1" , Ki value reported: 798 nM

Kindly note: Carbonic anhydrase 1 (Homo sapiens, UniProt P00915), "CCOc1ccc(S(=O)(=O)N2CCN(C)CC2)cc1-c1nnc2c(n1)c(C)nn2-c1ccc(S(=O)(=O)N2CCN(C)CC2)cc1" , Ki value reported: 467 nM
